Test system: VDR:RXRa (NR concentration 270 nM, RXRa partner concentration 90 nM)
Test: PBM binding z-score (relative to random genomic background probes); higher = stronger binding; sequences stand for … in GC…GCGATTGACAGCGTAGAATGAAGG
Classification field: YES = PBM binding z-score at or over 0.7; NO = PBM binding z-score under 0.7.

Would you please look over these solved cases?
- TGTCAAAGTCCAAAGGTAACGTAAGTATCCACAC: NO
- ACAGACAGGTGATGAAGGAAACTCAGGCTATCAT: NO
- ATGTGTAGGTTAAGGGTCATTCAGGTTGGTTCGC: YES
- GCTTGTAGATCAAGGCTAAGAAAGACTAAGCTAA: NO
- AATCAAAGTTCACTAGGTAACGTAAGATTCAGCT: YES

Field: next sequence
# check: PBM binding z-score of TCATATAGGTAAAAGGTGTAAGTCGGTGTGGTAA is greater than or equal to 0.7
YES

* * *

Test system: LXRa homodimer (NR concentration 270 nM)
Experiment: PBM binding z-score (relative to random genomic background probes); higher = stronger binding; sequences stand for … in GC…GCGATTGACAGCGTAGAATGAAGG
observed_property: PBM binding z-score
Form rule: numeric answer, no unit written next to it.

Recorded results for 2 sequences are shown here.
* TCTAGTTGGTCAAAGGGCACACACTCGAAATGCG | 0.344
* TTACCAAGCTGAAAGGTCGTTGATGCACGCCTTG | -0.316

Form field: reported PBM binding z-score of GGAACGACGGCAAAGTTGATAGCATCTGTCGACG
-0.557

Dear colleague, I am looking for the recorded PBM binding z-score of the following sequence: CAAACTAGGTCAAGAGGTGAAAGTCCGCTTCCCG
0.764

Name the reported PBM binding z-score value associated with the sequence GCTAGCAGGCCATTTGGGGCACTCAATGACGGGC
-0.424

Value lookup for PBM binding z-score; key = TCATATAGGTAAACACGTGAAAGTCCGTAAGTTA
0.235

Which PBM binding z-score value is on record for CCTAGCAGGCCAATATGGGTCACTCAAGGCTTGA ?
-0.00824

State the recorded PBM binding z-score for this entry: CTCGAAAGGTCGTGCTCAGCTGAGTATACCAAAC
-0.247

So what's the measured PBM binding z-score for this one? CGTCCAAGGTCAGCAGTTCAGTGAAAGCGACGTG
0.594

Could you share which PBM binding z-score value was measured for CGTCAAAGTTCAACTAAGGTAACGTACAGCACGC ?
4.76

Item under review: ATACCAATGTGATCGTGAGGTCGTTGATACTAAC . Reported PBM binding z-score?
0.704

Suppose we examine the sequence AGAACGAGAGCAATGAGTTGATAGCACGGGTGGC ; what PBM binding z-score value has been reported?
-0.726

* * *

Test system: LXRa:RXRa (NR concentration 270 nM, RXRa partner concentration 90 nM)
Test: PBM binding z-score (relative to random genomic background probes); higher = stronger binding; sequences stand for … in GC…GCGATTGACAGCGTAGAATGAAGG
observed_property: PBM binding z-score

Below, each entry is followed by its recorded PBM binding z-score result.
- CAGCCTTGGTCAGGGCCAGTATAGGAGGAACGTT: -0.936
- GCTATTAGTTTAAAGGGCAACCGAATGATTCTCG: 1.13
- CCTAGCAGGCCGATCTGGGTCACTCAAGGCTTGA: 0.587

Kindly state the measured PBM binding z-score obtained for CCTGCTAGGTAAATGGTCAGCTAAAGCAGCTCGC with LXRa:RXRa (NR concentration 270 nM, RXRa partner concentration 90 nM).
-0.376

Param readout = PBM binding z-score; param system = LXRa:RXRa (NR concentration 270 nM, RXRa partner concentration 90 nM); param query = CCGACCGGGGCATAAGGTTACCATAAGCCAGCCC ; response: value
1.92

Return PBM binding z-score measured with LXRa:RXRa (NR concentration 270 nM, RXRa partner concentration 90 nM) given this sequence: TCTTGTAGATCAATCAGGTTAAGAAAGCCTGAGT
0.362
